Every entry's value here was drawn from patent US20220073584A1.

# assayTarget: human RXFP2 (human, UniProt Q8WXD0 1-754)
# Sequence (Q8WXD0 whole entry): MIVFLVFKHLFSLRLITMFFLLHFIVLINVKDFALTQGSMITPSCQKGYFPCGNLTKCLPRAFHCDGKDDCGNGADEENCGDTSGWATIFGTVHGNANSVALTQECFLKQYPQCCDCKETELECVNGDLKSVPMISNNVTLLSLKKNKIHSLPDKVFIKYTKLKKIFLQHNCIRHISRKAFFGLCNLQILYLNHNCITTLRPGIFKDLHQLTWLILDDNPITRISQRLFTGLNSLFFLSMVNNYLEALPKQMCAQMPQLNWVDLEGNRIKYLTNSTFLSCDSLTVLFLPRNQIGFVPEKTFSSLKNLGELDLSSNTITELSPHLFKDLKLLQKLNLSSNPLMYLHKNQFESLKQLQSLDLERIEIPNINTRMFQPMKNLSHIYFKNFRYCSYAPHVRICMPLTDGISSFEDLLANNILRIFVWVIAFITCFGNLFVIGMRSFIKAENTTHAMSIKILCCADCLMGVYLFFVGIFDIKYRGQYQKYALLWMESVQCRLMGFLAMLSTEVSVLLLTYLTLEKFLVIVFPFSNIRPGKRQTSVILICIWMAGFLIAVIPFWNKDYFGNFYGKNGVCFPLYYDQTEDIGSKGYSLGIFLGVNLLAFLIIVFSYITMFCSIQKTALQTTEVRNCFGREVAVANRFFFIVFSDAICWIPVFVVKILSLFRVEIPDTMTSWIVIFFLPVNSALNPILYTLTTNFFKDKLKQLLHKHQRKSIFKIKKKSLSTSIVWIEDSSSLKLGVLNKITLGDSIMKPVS
# experiment: cell-based or functional assay
Ends that are not written are not given here.
measurementType: hRXFP2 EC50 (M), cAMP HTRF assay in CHO-K1 RXFP2 Gs cells

Please review the entries below; each comes with its answer.
Fc-TMΔTHTΔK_hRLX2(BA)_21-15AA (Fc fusion) GGGSACPPCPAPEFEGGPSVFLFPPKPKDTLMISRTPEVTCVVVDVSHEDPEVKFNWYVDGVEVHNAKTKPREEQYNSTYRVVSVLTVLHQDWLNGKEYKCKVSNKALPASIEKTISKAKGQPREPQVYTLPPSREEMTKNQVSLTCLVKGFYPSDIAVEWESNGQPENNYKTTPPVLDSDGSFFLYSKLTVDKSRWQQGNVFSCSVMHEALHNHYTQKSLSLSPGGGGGSGGGGSGGGGSGGGGGSSWMEEVIKLCGRELVRAQIAICGMSTWSGGGGSGGGGSGGGGSQLYSALANKCCHVGCTKRSLARFC: > 8.22e-06 M
recombinant human Relaxin-2 (R&D Systems, catalogue number 6586-RN-025) (ligand, not fully specified (bridges); ends and bridges not checked; also: two interchain and one intrachain disulfide bonds, positions not given here) chain 1: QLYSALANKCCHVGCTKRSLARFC chain 2: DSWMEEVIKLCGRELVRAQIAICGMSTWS: 1.46e-07 M

Now let's try a different one.
Exam item: Could you tell me which hRXFP2 EC50 (M), cAMP HTRF assay in CHO-K1 RXFP2 Gs cells is on file for hRLX2(BA)-Fc-TMΔTHTΔK_15-24AA (Fc fusion) SWMEEVIKLCGRELVRAQIAICGMSTWSGGGGSGGGGSGGGGSQLYSALANKCCHVGCTKRSLARFCAAAGGGGSGGGGSGGGGSGGGGSACPPCPAPEFEGGPSVFLFPPKPKDTLMISRTPEVTCVVVDVSHEDPEVKFNWYVDGVEVHNAKTKPREEQYNSTYRVVSVLTVLHQDWLNGKEYKCKVSNKALPASIEKTISKAKGQPREPQVYTLPPSREEMTKNQVSLTCLVKGFYPSDIAVEWESNGQPENNYKTTPPVLDSDGSFFLYSKLTVDKSRWQQGNVFSCSVMHEALHNHYTQKSLCLSPG ?
Marked response: > 4.33e-06 M
